Where a SMILES comes first, the peptide text is derived from it. Bridges are numbered along the chain shown (N, C = ends). [ ]: non-standard residue; d: D form.
Record type: IC50 measurement. Applies to: Somatostatin receptor type 2 (Homo sapiens)
Could you give me the number in nM? Just the number is fine.

Input: Query: IC50; subject: C[C@@H](O)[C@@H]1NC(=O)[C@H](CCCCN)NC(=O)[C@@H](Cc2c[nH]c3ccccc23)NC(=O)[C@H](Cc2ccccc2)NC(=O)[C@H](Cc2ccccc2)NC(=O)[C@@H](N)CSSC[C@@H](C(=O)O)NC(=O)[C@H](Cc2ccccc2)NC1=O (H-CFF[dW]KTFC-OH; disulfide 1-8)
Output: 130

Input: Field entry: C[C@@H](O)[C@@H]1NC(=O)[C@H](CCCCN)NC(=O)[C@H](Cc2c[nH]c3ccccc23)NC(=O)[C@H](Cc2ccccc2)NC(=O)[C@H](Cc2ccccc2)NC(=O)[C@@H](N)CSSC[C@@H](C(=O)O)NC(=O)[C@H](Cc2ccccc2)NC1=O (H-CFFWKTFC-OH; disulfide 1-8)
Output: 41

Input: Field entry: C[C@@H](O)[C@@H]1NC(=O)[C@H](CCCCN)NC(=O)[C@@H](Cc2c[nH]c3ccccc23)NC(=O)[C@H](Cc2ccccc2)NC(=O)[C@H](N(C)C(=O)c2ccccc2)NC(=O)[C@@H](N)CSSC[C@@H](C(=O)O)NC(=O)[C@H](Cc2ccccc2)NC1=O (stereo in doubt; 4)
Output: 374
